System Name: human 11β-HSD1 microsome fraction (Homo sapiens, UniProt P28845)
Sequence (P28845 whole entry): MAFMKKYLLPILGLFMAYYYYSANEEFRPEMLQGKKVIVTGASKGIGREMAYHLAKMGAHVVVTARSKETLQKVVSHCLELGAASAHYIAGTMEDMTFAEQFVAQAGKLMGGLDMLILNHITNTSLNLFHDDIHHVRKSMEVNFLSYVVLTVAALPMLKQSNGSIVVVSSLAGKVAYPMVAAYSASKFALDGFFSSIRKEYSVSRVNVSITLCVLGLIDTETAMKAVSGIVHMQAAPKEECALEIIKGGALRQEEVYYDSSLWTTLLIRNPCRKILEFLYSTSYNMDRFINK
Protocol Summary: Enzymatic 11beta-HSD1 test (SPA-based detection)
Protocol Conditions: IC50 (nM), Biological activity, [1,2-3H]-cortisone, 0.25 mM NADPH, 37° C. for 1 hour
Could you please mark Fulfilled for values of IC50 below 20 nM and Not fulfilled for values at or above it?

>>> answer_label("O=S1(=O)N=C(N[C@@H](CCO)c2cccnc2)O[C@H]2CCCC[C@H]21 [Example 25]")
"Not fulfilled"
>>> answer_label("O=S1(=O)N=C(N[C@@H](CCO)c2ccc(F)cc2)OC2CCCCC21 (single isomer, unassigned) [Example 20]")
"Fulfilled"
>>> answer_label("O=S1(=O)N=C(N[C@@H](CCO)c2ccc(F)cc2)OC2CCCCC21 (stereo partly shown) [Example 9]")
"Fulfilled"
>>> answer_label("NS(=O)(=O)CC(NC1=NS(=O)(=O)[C@@H]2CCCC[C@@H]2O1)c1ccccc1 (stereo partly shown) [Example 30]")
"Fulfilled"
>>> answer_label("O=S1(=O)N=C(N[C@@H](CCO)c2cccc(F)c2)OC2CCCCC21 (stereo partly shown) [Example 10]")
"Not fulfilled"
>>> answer_label("O=S1(=O)N=C(N[C@@H](CCO)c2ccccc2)OC2CCOCC21 (single isomer, unassigned) [Example 27]")
"Not fulfilled"
>>> answer_label("CC12CCCCC1(C)S(=O)(=O)N=C(N[C@@H](CCO)c1ccccc1)O2 (single isomer, unassigned) [Example 32]")
"Fulfilled"
>>> answer_label("CC12CCCCC1(C)S(=O)(=O)N=C(N[C@@H](CCO)c1cccnc1)O2 (single isomer, unassigned) [Example 33]")
"Fulfilled"
>>> answer_label("O=S1(=O)N=C(N[C@H](CO)Cc2ccccc2)OC2CCCCC21 (stereo partly shown) [Example 3]")
"Not fulfilled"
>>> answer_label("O=S1(=O)N=C(N[C@@H](CCO)c2ccc(F)cc2)OC2CCCCC21 (stereo partly shown) [Example 18]")
"Fulfilled"

----------
System Name: human 11β-HSD1 microsome fraction (Homo sapiens)
Protocol Summary: Enzymatic 11beta-HSD1 test (SPA-based detection)
Protocol Conditions: IC50 (nM), Biological activity, [1,2-3H]-cortisone, 0.25 mM NADPH, 37° C. for 1 hour
Recorded Metric: log10 of IC50 (log10 of the value in nM)

>>> assay_result("O=S1(=O)N=C(N[C@@H](CCO)c2ccccc2)OC2CCC(F)(F)CC21 (some centres unmarked)")
2.65
>>> assay_result("O=S1(=O)N=C(N[C@@H](CO)Cc2ccccc2)OC2CCCCC21 (some centres unmarked)")
2.76
>>> assay_result("O=S1(=O)N=C(N[C@@H](CCO)c2cccc(F)c2)OC2CCCCC21 (some centres unmarked) [Example 17]")
1.43
>>> assay_result("CC12CCCCC1(C)S(=O)(=O)N=C(N[C@@H](CCO)c1ccccc1)O2 (single isomer, unassigned) [Example 31]")
1.53
>>> assay_result("O=S1(=O)N=C(N[C@@H](CCO)c2ccc(F)cc2)OC2CCCCC21 (single isomer, unassigned) [Example 19]")
1.04
>>> assay_result("CC12CCCCC1(C)S(=O)(=O)N=C(N[C@@H](CCO)c1cccnc1)O2 (single isomer, unassigned) [Example 34]")
2.55
>>> assay_result("O=S1(=O)N=C(N[C@@H](CCO)c2ccccc2)OC2CCOCC21 (single isomer, unassigned) [Example 26]")
2.87
>>> assay_result("NS(=O)(=O)CC(NC1=NS(=O)(=O)[C@@H]2CCCC[C@@H]2O1)c1ccccc1 (some centres unmarked) [Example 29]")
1.18
